- Tested on: KYAE-1 (Esophageal Adenocarcinoma);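 note: after 72 h of two-drug dosing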
- protocolText: Bliss excess, mean over the matrix (fraction); higher = more synergy
List of Bliss excess values.
endpointName: Bliss excess

INSERT INTO measurements (compound, valuereported) VALUES
  ('CN(C)CCCOc1ccc(-c2ccc3ncc4c(c3c2)n(C2CCOCC2)c(=O)n4C)cn1 [AZD0156] + CCN(CCO)CCCOc1ccc2c(Nc3cc(CC(=O)Nc4cccc(F)c4)[nH]n3)ncnc2c1 [AZD2811] (first compound max 1 µM, 7x7, partner max 1 µM)', -0.0154),
  ('CC1(C)CCC(CN2CCN(c3ccc(C(=O)NS(=O)(=O)c4ccc(NCC5CCOCC5)c([N+](=O)[O-])c4)c(Oc4cnc5[nH]ccc5c4)c3)CC2)=C(c2ccc(Cl)cc2)C1 [Venetoclax] + C[C@@H](Nc1cc(F)cc(F)c1)c1cc(C(=O)N(C)C)cc2c(=O)cc(N3CCOCC3)oc12 [AZD8186] (first compound max 1 µM, 7x7, partner max 3 µM)', -0.0358),
  ('Cn1cnc2c(F)c(Nc3ccc(Br)cc3Cl)c(C(=O)NOCCO)cc21 [Selumetinib] + C=CCn1c(=O)c2cnc(Nc3ccc(N4CCN(C)CC4)cc3)nc2n1-c1cccc(C(C)(C)O)n1 [AZD1775] (first compound max 10 µM, partner max 1 µM)', -0.0019),
  ('COc1nnc2ccc(N3CCC(c4ccc(OCCN5CCN(C)C(=O)[C@H]5C)cc4)CC3)nn12 [AZD5153] + CC1(C)CCC(CN2CCN(c3ccc(C(=O)NS(=O)(=O)c4ccc(NCC5CCOCC5)c([N+](=O)[O-])c4)c(Oc4cnc5[nH]ccc5c4)c3)CC2)=C(c2ccc(Cl)cc2)C1 [Venetoclax] (first compound max 1 µM, 7x7, partner max 1 µM)', -0.0171);

###

- System: LS-123 (Colorectal Carcinoma)
- protocolText: combination Emax (second highest fraction inhibited in the dose matrix, 72 h); higher = more inhibition; extreme values may be limits of the assay
Give 1 when the value for combination Emax is at least 0.4. Give 0 when it is less.

INSERT INTO results (compound, assaysystem, qualitativelabel) VALUES
  ('CCc1c2c(nc3ccc(O)cc13)-c1cc3c(c(=O)n1C2)COC(=O)[C@]3(O)CC [SN-38] + CN(C)CCCOc1ccc(-c2ccc3ncc4c(c3c2)n(C2CCOCC2)c(=O)n4C)cn1 [AZD0156] (first compound max 0.3 µM, 7x7, partner max 1 µM)', 'LS-123 (Colorectal Carcinoma)', 1),
  ('O=C(c1cc(Cc2n[nH]c(=O)c3ccccc23)ccc1F)N1CCN(C(=O)C2CC2)CC1 [Olaparib] + Cc1c2c(nn1C)CSCc1cc(n(C)n1)CSc1cc(c3ccccc3c1)OCCCc1c(C(=O)O)n(C)c3c-2c(Cl)ccc13 [AZD5991] (first compound max 10 µM, 7x7, partner max 1 µM)', 'LS-123 (Colorectal Carcinoma)', 0),
  ('CC1(C)CCC(CN2CCN(c3ccc(C(=O)NS(=O)(=O)c4ccc(NCC5CCOCC5)c([N+](=O)[O-])c4)c(Oc4cnc5[nH]ccc5c4)c3)CC2)=C(c2ccc(Cl)cc2)C1 [Venetoclax] + CN(C)CCCOc1ccc(-c2ccc3ncc4c(c3c2)n(C2CCOCC2)c(=O)n4C)cn1 [AZD0156] (first compound max 1 µM, 7x7, partner max 1 µM)', 'LS-123 (Colorectal Carcinoma)', 0),
  ('CC1(C)CCC(CN2CCN(c3ccc(C(=O)NS(=O)(=O)c4ccc(NCC5CCOCC5)c([N+](=O)[O-])c4)c(Oc4cnc5[nH]ccc5c4)c3)CC2)=C(c2ccc(Cl)cc2)C1 [Venetoclax] + CS(=O)(=O)CCNCc1ccc(-c2ccc3ncnc(Nc4ccc(OCc5cccc(F)c5)c(Cl)c4)c3c2)o1 [Lapatinib] (first compound max 1 µM, 7x7, partner max 10 µM)', 'LS-123 (Colorectal Carcinoma)', 0),
  ('N#Cc1cnc(Nc2cc(NC[C@H]3CNCCO3)c(C(F)(F)F)cn2)cn1 [SRA737] + C=CCn1c(=O)c2cnc(Nc3ccc(N4CCN(C)CC4)cc3)nc2n1-c1cccc(C(C)(C)O)n1 [AZD1775] (first compound max 10 µM, partner max 1 µM)', 'LS-123 (Colorectal Carcinoma)', 1);
